Measured values drawn from ChEMBL document CHEMBL4007422 for this set.

assay-details: Half life in Wistar rat at 10 mg/kg, iv by LC-MS/MS analysis
Format: ADME, organism-based
particulars: in vivo
Measured half-life, listed per entry for reference.

The cases that follow already have their half-life on record.
molecule: COc1ccc2c(c1)c(CN1CCN(C)CC1)cn2S(=O)(=O)c1ccc(F)cc1.CS(=O)(=O)O.CS(=O)(=O)O
value-kind: half-life
measured-result: 2.52 h

molecule: COc1ccc2c(c1)c(CN1CCCN(C)CC1)cn2S(=O)(=O)c1ccc(C(C)C)cc1.Cl.Cl
value-kind: half-life
measured-result: 5.7 h

molecule: COc1ccc2c(c1)c(CN1CCN(C)CC1)cn2S(=O)(=O)c1ccccc1Br.CS(=O)(=O)O.O
value-kind: half-life
measured-result: 0.95 h

Let us examine a further case.
# input Provide half-life value for the following compound: COc1ccc2c(c1)c(CN1CCN(C)CC1)cn2S(=O)(=O)c1ccc(C(C)C)cc1.CS(=O)(=O)O.CS(=O)(=O)O
# output 1.12 h

---

measured-target: 5-hydroxytryptamine receptor 7 (Rattus norvegicus)
assay-details: Binding affinity to recombinant rat 5-HT7 receptor expressed in CHOK1 cells assessed as inhibition of 5-HT stimulated cAMP accumulation after 4 hrs by luciferase reporter gene assay
Assay type: cell-based
The source made the active and inactive calls. The calls are words filed in the database; no cut-off is given here.
value-kind: Activity

The cases that follow already have their Activity on record.
molecule: COc1ccc2c(c1)c(CN1CCN(C)CC1)cn2S(=O)(=O)c1ccc(C(C)C)cc1.CS(=O)(=O)O.CS(=O)(=O)O
measured-result: inactive

molecule: CN1CCN(Cc2cn(S(=O)(=O)c3ccc(F)cc3)c3ccccc23)CC1
measured-result: inactive

molecule: COc1cccc2c1c(CN1CCN(C)CC1)cn2S(=O)(=O)c1ccc(C(C)C)cc1.Cl.Cl
measured-result: inactive

molecule: COc1ccc2c(c1)c(CN1CCCN(C)CC1)cn2S(=O)(=O)c1ccc(C(C)C)cc1.Cl.Cl
measured-result: inactive

molecule: CN1CCN(Cc2cn(S(=O)(=O)c3ccccc3)c3ccccc23)CC1.Cl.Cl
measured-result: inactive

molecule: CC(C)c1ccc(S(=O)(=O)n2cc(CN3CCN(C)CC3)c3cc(F)ccc32)cc1.Cl.Cl
measured-result: inactive

molecule: COc1ccc2c(c1)c(CN1CCN(C)CC1)cn2S(=O)(=O)c1ccc(F)cc1.CS(=O)(=O)O.CS(=O)(=O)O
measured-result: inactive

Let us examine a further case.
# input Provide Activity value for the following compound: COc1ccc2c(c1)c(CN1CCN(C)CC1)cn2S(=O)(=O)c1ccccc1Br.CS(=O)(=O)O.O
# output inactive

---

measured-target: Cytochrome P450 3A4 (Homo sapiens, UniProt P08684)
Sequence (P08684 whole entry): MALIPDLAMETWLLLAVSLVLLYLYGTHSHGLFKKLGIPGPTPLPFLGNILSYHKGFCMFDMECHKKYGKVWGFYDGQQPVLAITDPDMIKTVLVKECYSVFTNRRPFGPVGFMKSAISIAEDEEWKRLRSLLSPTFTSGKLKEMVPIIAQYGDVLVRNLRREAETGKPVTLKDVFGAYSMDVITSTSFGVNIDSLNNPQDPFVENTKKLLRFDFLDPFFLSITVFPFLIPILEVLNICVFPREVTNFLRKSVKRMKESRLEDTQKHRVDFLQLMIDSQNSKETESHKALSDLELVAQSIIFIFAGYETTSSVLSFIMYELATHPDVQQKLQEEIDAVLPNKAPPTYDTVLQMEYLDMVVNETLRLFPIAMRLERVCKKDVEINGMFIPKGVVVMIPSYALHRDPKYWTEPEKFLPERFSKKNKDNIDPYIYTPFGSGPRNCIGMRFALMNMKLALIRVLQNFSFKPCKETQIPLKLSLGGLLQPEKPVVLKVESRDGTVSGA
assay-details: Inhibition of CYP3A4 in human liver microsomes using testosterone as substrate in presence of NADPH by LC-MS/MS analysis
Format: ADME
value-kind: IC50

# input Provide IC50 value for the following compound: COc1ccc2c(c1)c(CN1CCN(C)CC1)cn2S(=O)(=O)c1ccccc1Br.CS(=O)(=O)O.O
# output 2640 nM

---

Target sequence: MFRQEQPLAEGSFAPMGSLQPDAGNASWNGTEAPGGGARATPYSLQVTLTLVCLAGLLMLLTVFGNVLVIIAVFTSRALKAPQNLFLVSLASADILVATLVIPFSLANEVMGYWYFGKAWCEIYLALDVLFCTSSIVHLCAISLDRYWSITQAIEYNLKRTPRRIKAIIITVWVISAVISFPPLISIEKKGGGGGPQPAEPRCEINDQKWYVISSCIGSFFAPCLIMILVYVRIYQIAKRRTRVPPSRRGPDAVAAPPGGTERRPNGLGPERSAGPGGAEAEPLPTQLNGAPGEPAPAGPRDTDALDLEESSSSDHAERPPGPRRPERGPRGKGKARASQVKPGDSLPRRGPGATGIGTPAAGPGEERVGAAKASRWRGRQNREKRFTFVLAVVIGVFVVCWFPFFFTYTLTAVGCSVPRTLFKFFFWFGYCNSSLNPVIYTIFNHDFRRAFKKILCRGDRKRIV
value-kind: Ki
Please append the unit to your numeric answer.

# input Provide Ki value for the following molecule: COc1ccc2c(c1)c(CN1CCN(C)CC1)cn2S(=O)(=O)c1ccccc1Br.CS(=O)(=O)O.O
# output 2570 nM
